Molecular target: UniProtKB P41145
Sequence (P41145 whole entry): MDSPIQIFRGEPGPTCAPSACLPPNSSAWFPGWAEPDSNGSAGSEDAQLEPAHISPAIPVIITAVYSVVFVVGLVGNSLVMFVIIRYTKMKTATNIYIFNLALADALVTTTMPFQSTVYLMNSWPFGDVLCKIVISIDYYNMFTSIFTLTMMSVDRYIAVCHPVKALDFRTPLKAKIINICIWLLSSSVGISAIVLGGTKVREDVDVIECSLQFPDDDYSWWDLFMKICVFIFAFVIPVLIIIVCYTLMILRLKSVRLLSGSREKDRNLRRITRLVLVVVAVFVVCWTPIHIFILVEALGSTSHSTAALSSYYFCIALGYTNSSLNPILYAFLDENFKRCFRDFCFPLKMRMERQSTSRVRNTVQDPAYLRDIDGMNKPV
Test: κ-opioid receptor [35S]GTPγS functional assay, HEK-293 or CHO cells
Format: biochemical
Parameters: expressed in transfected cells; host or cells: HEK-293
Details: HEK-293 or CHO cells; read-out: GTPγS κ EC50
measured_parameter: pEC50
Notebook: values listed as pEC50 are -log10 of the concentration (mol/L).

Item under review: C[C@H]1[C@H]2Cc3ccc(O)cc3[C@]1(CCNC(=O)Cc1ccc(C(=O)O)cc1)CCN2CC1CC1 . Reported pEC50?
7.03

Item under review: C[C@H]1[C@H]2Cc3ccc(O)cc3[C@]1(CCNC(=O)c1ccc(C(=O)O)cc1)CCN2CC1CC1 . Reported pEC50?
6.84

Item under review: C[C@H]1[C@H]2Cc3ccc(O)cc3[C@]1(CCNC(=O)[C@@H]1CCCCN1)CCN2CC1CC1 . Reported pEC50?
8.98

Item under review: C[C@H]1[C@H]2Cc3ccc(O)cc3[C@]1(CCCCN[C@@H](Cc1ccccc1)C(N)=O)CCN2CC1CC1 . Reported pEC50?
8.83

Item under review: COc1ccc2c(c1)[C@]1(CCN[C@@H](C)C(=O)O)CCN(CC3CC3)[C@H](C2)[C@@H]1C . Reported pEC50?
5.10

---

Target: μ-opioid receptor (Homo sapiens)
Sequence (P35372 whole entry, species assumed): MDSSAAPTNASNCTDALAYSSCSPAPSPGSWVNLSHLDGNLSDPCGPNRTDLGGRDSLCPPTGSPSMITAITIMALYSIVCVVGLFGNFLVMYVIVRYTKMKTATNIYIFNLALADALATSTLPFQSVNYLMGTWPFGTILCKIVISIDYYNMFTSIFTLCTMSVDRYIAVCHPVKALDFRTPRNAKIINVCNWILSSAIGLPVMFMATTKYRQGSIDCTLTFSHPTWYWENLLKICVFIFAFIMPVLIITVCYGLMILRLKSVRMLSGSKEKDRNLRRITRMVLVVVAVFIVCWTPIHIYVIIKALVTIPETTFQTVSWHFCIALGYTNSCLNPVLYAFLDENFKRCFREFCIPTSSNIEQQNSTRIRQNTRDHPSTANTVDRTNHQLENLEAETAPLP
Experiment: biochemical
Design: purchased Perkin Elmer, Shelton, Conn; host or cells: HEK-293 or CHO
Conditions: HEK-293 or CHO cells; relative to DAMGO; read-out: GTPγS μ Emax
measured_parameter: Emax (%)
Write the value in % as a bare number.

Item under review: C[C@H]1[C@H]2Cc3ccc(O)cc3[C@]1(CCN1CCS(=O)(=O)CC1)CCN2C . Reported Emax?
51

Item under review: COc1ccc2c(c1)[C@]1(CCO)CCN(CC3CC3)[C@H](C2)[C@@H]1C . Reported Emax?
22

Item under review: COC(=O)[C@H](CCCCN)NCCCC[C@]12CCN(CC3CC3)[C@H](Cc3ccc(O)cc31)[C@@H]2C . Reported Emax?
0.33

---

Please respond with reported pEC50 for every item in the list.
Target: μ-opioid receptor (Homo sapiens)
Experiment: biochemical
Design: purchased Perkin Elmer, Shelton, Conn; host or cells: HEK-293 or CHO
Conditions: HEK-293 or CHO cells; read-out: GTPγS μ EC50
Notebook: values listed as pEC50 are -log10 of the concentration (mol/L).

Item under review: C[C@H]1[C@H]2Cc3ccc(O)cc3[C@]1(CCNC(=O)Nc1ccccc1)CCN2C . Reported pEC50?
7.55

Item under review: COc1ccc2c(c1)[C@]1(CCO)CCN(CC3CC3)[C@H](C2)[C@@H]1C . Reported pEC50?
5.94

Item under review: C[C@H]1[C@H]2Cc3ccc(O)cc3[C@]1(CCNC(=O)Nc1cccc(Oc3ccccc3)c1)CCN2C . Reported pEC50?
7.74
